# Test system: Escherichia coli TOP10
# assay-notes: shrunken log2 fold change of peptide-encoding DNA abundance (4.5 h post-induction vs induction); higher = less antimicrobial activity (less host growth inhibition)
# recorded-conditions: time post-induction: 4.5 h; library: site-saturation at positions 5, 18, 19, 20
Please provide measured shrunken log2 fold change for the entries that follow.
Could you keep your reply to the number by itself?

Measured shrunken log2 fold change of `RRIRARPPRLPRPRPRPSLMPRP` : 0.0307

Measured shrunken log2 fold change of `RRIRSRPPRLPRPRPRPMPHPRP` : 0.00101

Measured shrunken log2 fold change of `RRIRYRPPRLPRPRPRPMIQPRP` : -0.0921

Measured shrunken log2 fold change of `RRIRCRPPRLPRPRPRPADEPRP` : 0.431

Measured shrunken log2 fold change of `RRIRNRPPRLPRPRPRPHLCPRP` : 0.183

Measured shrunken log2 fold change of `RRIRDRPPRLPRPRPRPATSPRP` : 0.303

Measured shrunken log2 fold change of `RRIRRRPPRLPRPRPRPNEIPRP` : -0.0559

Measured shrunken log2 fold change of `RRIRYRPPRLPRPRPRPADHPRP` : -0.0872

---

Please provide measured shrunken log2 fold change for the entries that follow.
# Test system: Escherichia coli TOP10
# assay-notes: shrunken log2 fold change of peptide-encoding DNA abundance (4.5 h post-induction vs induction); higher = less antimicrobial activity (less host growth inhibition)
# recorded-conditions: time post-induction: 4.5 h; library: site-saturation at positions 5, 18, 19, 20
Could you keep your reply to the number by itself?

Measured shrunken log2 fold change of `RRIRLRPPRLPRPRPRPVFRPRP` : 0.0694

Measured shrunken log2 fold change of `RRIRGRPPRLPRPRPRPFIMPRP` : -0.285

Measured shrunken log2 fold change of `RRIRNRPPRLPRPRPRPNTFPRP` : -0.332

Measured shrunken log2 fold change of `RRIRARPPRLPRPRPRPLCTPRP` : 0.223

Measured shrunken log2 fold change of `RRIRARPPRLPRPRPRPISQPRP` : 0.177

Measured shrunken log2 fold change of `RRIRPRPPRLPRPRPRPGWDPRP` : 0.011

Measured shrunken log2 fold change of `RRIRHRPPRLPRPRPRPAISPRP` : -0.121

Measured shrunken log2 fold change of `RRIRMRPPRLPRPRPRPNLMPRP` : -0.126

Measured shrunken log2 fold change of `RRIRVRPPRLPRPRPRPELEPRP` : 0.292

Measured shrunken log2 fold change of `RRIRERPPRLPRPRPRPPVDPRP` : 0.125

Measured shrunken log2 fold change of `RRIRARPPRLPRPRPRPPFDPRP` : 0.922

Measured shrunken log2 fold change of `RRIRTRPPRLPRPRPRPGFDPRP` : -0.164

Measured shrunken log2 fold change of `RRIRERPPRLPRPRPRPQNSPRP` : -0.505

Measured shrunken log2 fold change of `RRIRGRPPRLPRPRPRPHNGPRP` : 0.0528

Measured shrunken log2 fold change of `RRIRRRPPRLPRPRPRPFFRPRP` : 0.354

Measured shrunken log2 fold change of `RRIRCRPPRLPRPRPRPHLCPRP` : -0.111

Measured shrunken log2 fold change of `RRIRDRPPRLPRPRPRPGPFPRP` : 0.174

Measured shrunken log2 fold change of `RRIRHRPPRLPRPRPRPEPAPRP` : 1.48

Measured shrunken log2 fold change of `RRIRMRPPRLPRPRPRPQMIPRP` : -0.0999

Measured shrunken log2 fold change of `RRIRRRPPRLPRPRPRPIYTPRP` : -0.176

Measured shrunken log2 fold change of `RRIRCRPPRLPRPRPRPVMWPRP` : 0.131

Measured shrunken log2 fold change of `RRIRVRPPRLPRPRPRPRREPRP` : 0.495

Measured shrunken log2 fold change of `RRIRWRPPRLPRPRPRPSNKPRP` : -0.403

Measured shrunken log2 fold change of `RRIRPRPPRLPRPRPRPLKAPRP` : -0.0747

Measured shrunken log2 fold change of `RRIRLRPPRLPRPRPRPNGVPRP` : 0.0191

Measured shrunken log2 fold change of `RRIRQRPPRLPRPRPRPWQQPRP` : -0.333

Measured shrunken log2 fold change of `RRIRKRPPRLPRPRPRPIWKPRP` : -0.00277

Measured shrunken log2 fold change of `RRIRARPPRLPRPRPRPWCVPRP` : 0.201

Measured shrunken log2 fold change of `RRIRFRPPRLPRPRPRPSNPPRP` : -0.674

Measured shrunken log2 fold change of `RRIRFRPPRLPRPRPRPDFRPRP` : 0.00564

Measured shrunken log2 fold change of `RRIRVRPPRLPRPRPRPLATPRP` : 0.309

Measured shrunken log2 fold change of `RRIRVRPPRLPRPRPRPTSLPRP` : -0.262

---

# Tested on: Escherichia coli TOP10;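 also: peptides expressed intracellularly from a pBAD plasmid library in pooled LB shake-flask culture, induced with 0.3% L-arabinose, DNA abundance read by NGS, three biological replicates, DESeq2 with apeglm shrinkage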
# assay-notes: shrunken log2 fold change of peptide-encoding DNA abundance (4.5 h post-induction vs induction); higher = less antimicrobial activity (less host growth inhibition)
# recorded-conditions: time post-induction: 4.5 h; library: site-saturation at positions 5, 18, 19, 20
endpoint-name: shrunken log2 fold change
Could you keep your reply to the number by itself?

Measured shrunken log2 fold change of `RRIRGRPPRLPRPRPRPHHEPRP` : 0.325

Measured shrunken log2 fold change of `RRIRHRPPRLPRPRPRPCGIPRP` : -0.0112

Measured shrunken log2 fold change of `RRIRVRPPRLPRPRPRPPWVPRP` : 0.297

Measured shrunken log2 fold change of `RRIRPRPPRLPRPRPRPCVKPRP` : -0.139

Measured shrunken log2 fold change of `RRIRIRPPRLPRPRPRPPRLPRP` : 0.256

Measured shrunken log2 fold change of `RRIRERPPRLPRPRPRPGSLPRP` : -0.431

Measured shrunken log2 fold change of `RRIRNRPPRLPRPRPRPHPNPRP` : 0.0207

Measured shrunken log2 fold change of `RRIRPRPPRLPRPRPRPFYRPRP` : 0.0278
